This collection of values is drawn from patent US20260242478A1.

testTarget: T1, PSMA Fab (biotinylated (site not stated))
T1 construct: Biotinylated PSMA Fab captured on neutravidin plates in the phage ELISA; also called Anti-PSMA Fab; 006 PSMA Fab
experiment: phage ELISA; biotinylated PSMA Fab on neutravidin plate, clonal phage supernatant, anti-M13-HRP detection;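 also: wells were preincubated with blocking buffer containing PSMA antigen or with blocking buffer only, then phage supernatant was added without washing for a brief incubation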
Where no end group is shown, it is not given here.
metric: Phage binding ELISA signal, Anti-PSMA Fab

binder | valueReported
EGKWCIPDWMCAAH (cysteine pairing not given here; also: fused to phage pIII, linker and fusion site not given here) [Phage-2547] | 1.14
ESHWCIPAWMCEQF [Phage-2546] | 1.14
VLKWCTPAWMCTGF [Phage-2557] | 1.12
FHEWCIPSWMCFKE [Phage-2550] | 1.14
VQKWCIPPWMCTHI [Phage-2549] | 1.14
FENWCTPKWMCIGV [Phage-2548] | 1.14
TQKLCIPEWMCEAM [Phage-2555] | 1.12
